Origin of the recorded values: ChEMBL document CHEMBL4831490

Assay: Toxicity in 3hpf zebrafish AB embryo assessed as NOAEL measured 96 hpf
Parameters: species or system Danio rerio
Settings: in vivo, 96 h
For each entry below, report its NOAEL value.
Answers are plain numbers, in µM.

Completed entries (count: 3):
# test-smiles, assay-metric, assay-result
records = [
    ("CCCCCCCC(=O)OC[C@@H]1O[C@H](Oc2ccc(/C=C/c3cc(O[Si](C(C)C)(C(C)C)C(C)C)cc(O[Si](C(C)C)(C(C)C)C(C)C)c3)cc2)[C@@H](O)[C@H](O)[C@H]1O", "NOAEL", 100),
    ("CCCCCCCC(=O)OC[C@H]1O[C@@H](Oc2cc(/C=C/c3ccc(O[Si](C(C)C)(C(C)C)C(C)C)cc3)cc(O[Si](C(C)C)(C(C)C)C(C)C)c2)[C@H](O)[C@@H](O)[C@@H]1O", "NOAEL", 100),
    ("CC[Si](CC)(CC)Oc1ccc(/C=C/c2cc(O)cc(O[Si](CC)(CC)CC)c2)cc1", "NOAEL", 100),
]

Okay, now this molecule:
response.value for Oc1ccc(/C=C/c2cc(O)cc(O)c2)cc1 (field: NOAEL) = 1000

----------
Test: Hydrolytic stability of the compound in mouse serum assessed as parent compound remaining measured after 1 hr
Type: ADME, cell-free
Details: read-out: Stability
assay-metric: remaining at 1 h (%)
Numbers only, in %.

// CCCCCCCC(=O)OC[C@@H]1O[C@H](Oc2ccc(/C=C/c3cc(O[Si](C(C)C)(C(C)C)C(C)C)cc(O[Si](C(C)C)(C(C)C)C(C)C)c3)cc2)[C@@H](O)[C@H](O)[C@H]1O : remaining at 1 h value = 75

----------
Test: Toxicity in 3hpf zebrafish AB embryo assessed as median lethal dose measured 96 hpf
Set-up: species or system Danio rerio
Settings: in vivo
assay-metric: LC50 at 96 h

# compound, LC50 at 96 h
rows = [
    ("CCCC(=O)Oc1ccc(/C=C/c2cc(O[Si](CC)(CC)CC)cc(O[Si](CC)(CC)CC)c2)cc1", "407 µM"),
    ("CC[Si](CC)(CC)Oc1cc(/C=C/c2ccc(O)cc2)cc(O[Si](CC)(CC)CC)c1", "475 µM"),
    ("CCCCCCCC(=O)OC[C@@H]1O[C@H](Oc2ccc(/C=C/c3cc(O[Si](C(C)C)(C(C)C)C(C)C)cc(O[Si](C(C)C)(C(C)C)C(C)C)c3)cc2)[C@@H](O)[C@H](O)[C@H]1O", "407 µM"),
    ("CC(C)[Si](Oc1cc(/C=C/c2ccc(O[C@H]3O[C@@H](CO)[C@H](O)[C@@H](O)[C@@H]3O)cc2)cc(O[Si](C(C)C)(C(C)C)C(C)C)c1)(C(C)C)C(C)C", "> 1000 µM"),
    ("CCCCCCCC(=O)OC[C@H]1O[C@@H](Oc2cc(/C=C/c3ccc(O[Si](C(C)C)(C(C)C)C(C)C)cc3)cc(O[Si](C(C)C)(C(C)C)C(C)C)c2)[C@H](O)[C@@H](O)[C@@H]1O", "407 µM"),
]

# per-item lookup of LC50 at 96 h; items listed below
1. CC(C)[Si](Oc1ccc(/C=C/c2cc(O)cc(O[Si](C(C)C)(C(C)C)C(C)C)c2)cc1)(C(C)C)C(C)C
2. Oc1ccc(/C=C/c2cc(O)cc(O)c2)cc1 [RESVERATROL]
3. CC[Si](CC)(CC)Oc1ccc(/C=C/c2cc(O)cc(O[Si](CC)(CC)CC)c2)cc1
4. CC(C)[Si](Oc1ccc(/C=C/c2cc(O[C@@H]3O[C@H](CO)[C@@H](O)[C@H](O)[C@H]3O)cc(O[Si](C(C)C)(C(C)C)C(C)C)c2)cc1)(C(C)C)C(C)C

Reply text:
["> 1000 µM", "> 1000 µM", "380 µM", "> 1000 µM"]

----------
Assay: Stability of the compound in human SH-SY5Y cells assessed as parent compound remaining measured after 72 hrs
Assay type: ADME
Details: read-out: Stability
assay-metric: remaining at 72 h

# test-smiles, remaining at 72 h
data = [
    ("CC(C)[Si](Oc1ccc(/C=C/c2cc(O[C@@H]3O[C@H](CO)[C@@H](O)[C@H](O)[C@H]3O)cc(O[Si](C(C)C)(C(C)C)C(C)C)c2)cc1)(C(C)C)C(C)C", "> 80%"),
    ("CC(C)[Si](Oc1cc(/C=C/c2ccc(O)cc2)cc(O[Si](C(C)C)(C(C)C)C(C)C)c1)(C(C)C)C(C)C", "> 80%"),
]

Please find the next molecule below.
For reference, reported remaining at 72 h for CCCCCCCC(=O)OC[C@@H]1O[C@H](Oc2ccc(/C=C/c3cc(O[Si](C(C)C)(C(C)C)C(C)C)cc(O[Si](C(C)C)(C(C)C)C(C)C)c3)cc2)[C@@H](O)[C@H](O)[C@H]1O stands at > 80%
